Test system: Langendorff perfused rabbit heart
Experiment: Retrograde-perfused Langendorff rabbit heart assay
Measurement context: bolus into the perfusion block; read-out: concentration for 50% response, increase in heart rate
Description: The effect of h-SCP (SEQ ID NO:1) on heart rate (HR), left ventricular (LV) contraction, and vascular tone was assessed in a retrograde-perfused Langendorff rabbit heart assay.
Readout kind: EC50 (nM)

H-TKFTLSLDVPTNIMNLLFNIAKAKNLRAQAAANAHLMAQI-NH2 [SEQ ID NO: 1]; 52

###

Experiment: Nonclinical pharmacokinetics in cynomolgus monkeys
Measurement context: male, cynomolgus monkey, in vivo; cyno IV infusion 3 hours, M, 100 ng/kg/min
Readout kind: AUC(0-inf) (ng·h/mL)

H-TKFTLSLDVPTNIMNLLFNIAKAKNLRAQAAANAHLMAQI-NH2 [SEQ ID NO: 1]; 9.79

###

Experiment: Nonclinical pharmacokinetics in cynomolgus monkeys
Measurement context: female, cynomolgus monkey, in vivo, iv, 33.3 ng/kg/min, cyno IV infusion 3 hours, F, 33.3 ng/kg/min; read-out: t1/2 terminal
Readout kind: half-life (min)

H-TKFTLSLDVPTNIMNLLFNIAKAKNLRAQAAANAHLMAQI-NH2 [SEQ ID NO: 1]; 14.8

###

Experiment: Nonclinical pharmacokinetics in cynomolgus monkeys
Measurement context: cynomolgus monkey, in vivo; cynomolgus monkeys, 16.7 to 100 ng/kg/min; read-out: clearance values (CL)
Readout kind: clearance

H-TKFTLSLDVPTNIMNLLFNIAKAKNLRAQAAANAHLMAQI-NH2 [SEQ ID NO: 1]; 30 to 40 mL/min/kg

###

Experiment: Human pharmacokinetics, healthy subjects, 24- or 72-hour infusion of 54 ng/kg/min
Measurement context: male, in vivo, 54 ng/kg, Vss
Readout kind: Vd

H-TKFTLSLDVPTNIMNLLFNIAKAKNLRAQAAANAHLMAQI-NH2 [SEQ ID NO: 1]; 3.7 L/kg

###

Experiment: Nonclinical pharmacokinetics in rats
Design: species or system rat
Measurement context: male, in vivo, 10000 ng/kg; rat IV bolus, M, 10,000 ng/kg
Readout kind: Cmax (ng/mL)

H-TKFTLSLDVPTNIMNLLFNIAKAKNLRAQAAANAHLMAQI-NH2 [SEQ ID NO: 1]; 13.6

###

Experiment: Nonclinical pharmacokinetics in rats
Design: species or system rat
Measurement context: male, in vivo; rat IV infusion 3 hours, M, 83.3 ng/kg/min; read-out: CL
Readout kind: clearance (mL/min/kg)

H-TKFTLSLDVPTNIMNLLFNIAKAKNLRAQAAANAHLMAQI-NH2 [SEQ ID NO: 1]; 116

###

Experiment: Nonclinical pharmacokinetics in dogs
Set-up: species or system dog
Measurement context: dog, in vivo, dogs, two-compartment analysis; read-out: alpha-phase half-life (t1/2 alpha)
Readout kind: half-life

H-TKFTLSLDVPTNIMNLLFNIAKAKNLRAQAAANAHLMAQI-NH2 [SEQ ID NO: 1]; 10 to 20 min

###

Experiment: Nonclinical pharmacokinetics in rats
Parameters: species or system rat
Measurement context: male, in vivo; rat IV infusion 3 hours, M, 167 ng/kg/min
Readout kind: Cmax (ng/mL)

H-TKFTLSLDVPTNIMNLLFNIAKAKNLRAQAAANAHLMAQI-NH2 [SEQ ID NO: 1]; 1.53

###

Experiment: Nonclinical pharmacokinetics in rats
Set-up: species or system rat
Measurement context: male, in vivo, 50000 ng/kg; rat IV bolus, M, 50,000 ng/kg
Readout kind: Cmax

H-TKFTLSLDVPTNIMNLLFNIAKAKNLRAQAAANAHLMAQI-NH2 [SEQ ID NO: 1]; 0.225 µg/mL

###

Experiment: Nonclinical pharmacokinetics in rats
Parameters: species or system rat
Measurement context: male, in vivo, 50000 ng/kg; rat IV bolus, M, 50,000 ng/kg; read-out: CL
Readout kind: clearance (mL/min/kg)

H-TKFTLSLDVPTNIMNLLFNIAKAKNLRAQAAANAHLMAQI-NH2 [SEQ ID NO: 1]; 41.8

###

Experiment: Human pharmacokinetics, healthy subjects, 24- or 72-hour infusion of 54 ng/kg/min
Measurement context: male, in vivo, 54 ng/kg, healthy subjects, 54 ng/kg/min, 72 Hours Male, mean, N = 7
Readout kind: Cmax

H-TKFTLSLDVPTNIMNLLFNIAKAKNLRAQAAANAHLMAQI-NH2 [SEQ ID NO: 1]; 10.2 ng/mL

###

Experiment: Nonclinical pharmacokinetics in rats
Set-up: species or system rat
Measurement context: male, in vivo; rat IV infusion 3 hours, M, 333 ng/kg/min
Readout kind: AUC(0-inf) (ng·h/mL)

H-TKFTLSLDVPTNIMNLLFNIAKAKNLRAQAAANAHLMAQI-NH2 [SEQ ID NO: 1]; 4.85

###

Experiment: in vivo
Measurement context: dog, iv, 22 ng/kg/min
Readout kind: level at 0.5 h (ng/mL)

H-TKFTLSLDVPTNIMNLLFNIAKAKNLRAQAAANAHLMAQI-NH2 [SEQ ID NO: 1]; 0.62

###

Experiment: Nonclinical pharmacokinetics in dogs
Parameters: species or system dog
Measurement context: male, in vivo; dog IV infusion 3 hours, M, 8.33 ng/kg/min; read-out: Cmax
Readout kind: Cmax

H-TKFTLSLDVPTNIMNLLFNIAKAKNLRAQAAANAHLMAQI-NH2 [SEQ ID NO: 1]; 2.38 ng/mL

###

Experiment: Human pharmacokinetics, healthy subjects, 24- or 72-hour infusion of 54 ng/kg/min
Measurement context: female, in vivo, 54 ng/kg, T1/2
Readout kind: half-life

H-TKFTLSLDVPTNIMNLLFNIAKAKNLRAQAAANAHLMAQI-NH2 [SEQ ID NO: 1]; 23.4 h

###

Experiment: Nonclinical pharmacokinetics in rats
Design: species or system rat
Measurement context: rat, in vivo, alpha-phase half-life (t1/2 alpha)
Readout kind: half-life

H-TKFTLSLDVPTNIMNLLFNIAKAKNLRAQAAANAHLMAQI-NH2 [SEQ ID NO: 1]; < 5 min

###

Experiment: Nonclinical pharmacokinetics in rats
Set-up: species or system rat
Measurement context: female, in vivo; rat IV infusion 3 hours, F, 333 ng/kg/min
Readout kind: AUC(0-inf) (ng·h/mL)

H-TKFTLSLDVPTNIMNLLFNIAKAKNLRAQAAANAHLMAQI-NH2 [SEQ ID NO: 1]; 4.45

###

Experiment: Human pharmacokinetics, healthy subjects, 24- or 72-hour infusion of 54 ng/kg/min
Measurement context: female, in vivo, 54 ng/kg, Vss
Readout kind: Vd (L/kg)

H-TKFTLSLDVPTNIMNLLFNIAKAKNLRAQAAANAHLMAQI-NH2 [SEQ ID NO: 1]; 2.72
